Target: T1, membrane-bound B Lymphocyte Stimulator on U937 plasma membrane preparations (human, UniProt Q9Y275 1-285)
T1 construct: Natural protein in plasma membrane fractions of the human cell line U937 coated on ELISA plates; also called U937 plasma membranes; U937 membranes
T1 sequence (Q9Y275 whole entry): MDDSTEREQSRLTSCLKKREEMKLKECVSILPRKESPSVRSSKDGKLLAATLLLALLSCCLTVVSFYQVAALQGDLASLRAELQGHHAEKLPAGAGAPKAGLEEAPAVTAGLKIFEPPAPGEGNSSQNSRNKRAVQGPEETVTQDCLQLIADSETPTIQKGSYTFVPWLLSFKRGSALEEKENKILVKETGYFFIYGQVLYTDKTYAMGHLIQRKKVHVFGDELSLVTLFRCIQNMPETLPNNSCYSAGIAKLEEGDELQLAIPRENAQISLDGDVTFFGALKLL
Experiment: phage ELISA
result type: binding result

I008D05 (scFv, also called 1008D05) scFv: GVQLVQSGAEVKKPGSSVKISCKASGVTFNDYAFSWVRQAPGQGLEWVGGIIPKFGKAKYAQKFQGRLTISGDKSTSTAYMELRSLTSDDTAVYYCARATYDPLTGYSFDGFDIWGQGTMVTVSSGGGGSGGGGSGGGGSQSVLTQPASVSGSPGQSITISCTGTSSDVGGYNYVSWYQQHPGKAPKLMIYEGSKRPSGVSNRFSGSKSGNPASLTISGLQAEDEADYYCSSYTTRSTRVFGGGTKLTVLG : binds
I031F09 (scFv) scFv: QVQLVQSGAEVKKPGASVKVSCTVSGDSFSRHGISWVRQAPGQGLEWMGWISVYNGDTKYAQKVQGRVTMTTDTSTNTVYMELRRLRSDDTAVYYCARDEGRDLLTGYYWPNFFDSWGRGTLVTVSSGGGGSGGGGSGGGGSALSYVLTQPPSASGTPGQRVTISCSGSRPNIGGNTVNWYQQLPGAAPKLLIYSNSQRPSGVPDRFSGSKYGTSASLAISGLQSDDEADYYCAAWDDSLTGPVFGGGTKLTVLG : binds
I021B05 (scFv) scFv: QVQQSGADVKKPGGSLRLSCAASGFTFSSYSMNWVRQAPGKGLEWVSSISSSSSYIYYADSVKGRFTISRDNAKNSLYLQMNSLRAEDTAVYYCAREGGNYDILTGYYIGNGAFDIWGRGTMVTVSSGGGGSGGGGSGGGGSQSVLTQPASVSGSPGQSITISCTGTSSDVGGYNYVSWYQQHPGKAPKLMIYEGSKRPSGVSNRFSGSKSGNTASLTISGLQAEDEADYYCSSYTTRSTRVFGGGTKLTVLG : binds
